Data provenance: PubChem BioAssay (NCI)

# Tested on: SW-620 colon
# assay_protocol: NCI tumour cell line growth inhibition, 48 h; in the data active = GI50 below about 0.43 µM; inactive = the rest
*1 amine or outer side, *2 acyl side, *3 side chain or, on linkers, in order; H or OH if unused. Where a SMILES comes first, the peptide text is derived from it. [ ]: non-standard residue; d: D form. The star is where a group is joined. X11 = C/C=C/CC(C)C(O)[C@H](N[*:1])C(=O)[*:2]; Decanoyl = CCCCCCCCCC(=O)*; Leu(ol) = CC(C)C[C@H](N)CO; Iva = CC[C@](C)(N)C(=O)O; Aib = CC(C)(N)C(=O)O
Classes used: Y = active, N = inactive

| molecule | system_name | category_label |
| --- | --- | --- |
| C/C=C/CC(C)C(O)[C@H](NC(=O)[C@@H]1CCCN1C(=O)C(C)(C)NC(=O)CCCCCCCCC)C(=O)N[C@@](C)(CC)C(=O)N[C@@H](CCC(N)=O)C(=O)N[C@H](CCC(N)=O)C(=O)NC(C)(C)C(=O)NC(C)(C)C(=O)N[C@@H](CCC(N)=O)C(=O)N[C@H](CC(C)C)C(=O)N[C@H](CO)CC(C)C (stereo partly drawn) (Decanoyl-[Aib]P[X11][Iva]Q[dQ][Aib][Aib]Q[dL][Leu(ol)]) | SW-620 colon | N |
| Clc1cccc(/C=N/Nc2nc(N/N=C/c3cccc(Cl)c3)nc(N3CCOCC3)n2)c1 | SW-620 colon | N |
| COc1ccc([C@H]2[C@H](O)C(=O)N2c2cc(OC)c(OC)c(OC)c2)cc1O | SW-620 colon | Y |
| Cc1cc(C)cc(NC2=C(Cl)C(=O)c3nc(C)ccc3C2=O)c1 | SW-620 colon | N |

====

# System: HCC-2998 colon
# assay_protocol: NCI tumour cell line growth inhibition, 48 h

| entry_smiles | result_operator | TGI, µM |
| --- | --- | --- |
| O=C(N/N=C/c1ccc[nH]1)c1[nH]c2ccc(Br)cc2c1-c1ccccc1 | = | 4.81 |
| Clc1cccc(/C=N/Nc2nc(N/N=C/c3cccc(Cl)c3)nc(N3CCOCC3)n2)c1 | > | 100 |
| CN1CCN(Cc2ccc(NC(=O)c3cncc(C#Cc4cnc5ccc(N6CCSCC6)nn45)c3)cc2C(F)(F)F)CC1 | = | 0.878 |
| COc1ccc([C@H]2[C@H](O)C(=O)N2c2cc(OC)c(OC)c(OC)c2)cc1O | > | 100 |
